Value source: the RNAGym collection of RNA variant scans (doi:10.1073/pnas.2313332121)

B1: TPR t1 (parent)
chain: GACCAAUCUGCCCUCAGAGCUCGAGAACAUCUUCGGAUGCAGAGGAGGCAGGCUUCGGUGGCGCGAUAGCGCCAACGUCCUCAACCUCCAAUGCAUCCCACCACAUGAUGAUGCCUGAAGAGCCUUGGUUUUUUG

# Variants of: B1
# Assay info: polymerase ribozyme fitness, log enrichment relative to wild type (log ratio); higher = more active; in vitro selection for triplet polymerase activity
polymerase ribozyme fitness (log ratio) values for the variants below.
Lab note: jot the number down without any unit.

>  <Seq text>
GACCAAUCUGCCCUCAGAGCUCGAGAACAUCUUCGGAUGCAGAGGAGGCAGGUUUCGGUGGCGCGAUAGCGCCAACGUCCUCAACGUCCAAUGCAUCCCACCACAUGAUGAUGCCUGAAGAGCCUUGGUUUUUUG [C53U C86G]

>  <Property name>
polymerase ribozyme fitness (log ratio)

>  <Endpoint value>
-0.977

$$$$

get_value(item= GACCAAUCUGCCCUCAGAGCUCGAGAACAUCUUCGGAUGCAGAGGAGGCAGGCUUCGGUGGCGCGAUAGCGCCAACGUCCUAAACCUCCAAUGCAUCACACCACAUGAUGAUGUCUGAAGAGCCUUGGUUUUUUG [C82A C98A C114U] , readout=polymerase ribozyme fitness (log ratio)) returns -5.87

get_value(item= GACCAAUCUGCCCUCAGAGCUCGAGAACAUCUUCGGAUGCAGAGGAGGCAGGCUUCGGUGGCGCGAUAGCGCCAACGUCCUCUACCUCCAAUGCAUCCCAGCACAUGAUGAUGCCUGAAGAGCCUUGGUUUUUUG [A83U C101G] , readout=polymerase ribozyme fitness (log ratio)) returns -1.74

get_value(item= GACCAAUCUGCCCUCAGAGCUCGAGAACAUCUUCGGAUGCAGAGGAGGCAGGCUUCGGUGGCGCGAUAGUGGCAACGUCCUCAACCUCCAAUGCAUCCCACCACAUGAUGAUGCUUAAAGAGCCUUGGUUUUUUG [C70U C72G C115U G117A] , readout=polymerase ribozyme fitness (log ratio)) returns -5.53

get_value(item= GACCAAUCUGCACUCAGAGCUCGAGAAUAUCUUCGGAUGCAGAGGAGGCAGGCUUCGGUGGCCCGAUAGCGCCAACGUCCUCAACCUCCAAUGCAUCCCACCACAUGAUGAUGCCUGAAGAGCCUUGGUUUUUUG [C12A C28U G63C] , readout=polymerase ribozyme fitness (log ratio)) returns -2.37

get_value(item= GACCAAUCUGCACUUAGAGCACGAGAACAUCUUCGGAUACAGAGGAGGCAGGCUUCGGUGGCGCGAUAGCGCCAACGUCCUCAACCUCCAAUGCAUCCCACCACAUGAUGAUGCCUGAAGAGCCUUGGUUUUUUG [C12A C15U U21A G39A] , readout=polymerase ribozyme fitness (log ratio)) returns -1.06

get_value(item= GACCAAUCUGCCCUCAGAGCUCGAGAACAUCUUCGGAUGCAUAGGAGGCAGGCUUCGGAGGCGCGAUAUCGCCAACGUCCUCAACCUCCAAUGCAUCCCACCACAUGAUGAUGCCUGAAGAGCCUUGGUUUUUUG [G42U U59A G69U] , readout=polymerase ribozyme fitness (log ratio)) returns -0.413

get_value(item= GACCAAUCUGCCCUCAGAGCUCGAGAACAUCUUCGGAUGCAGAGGAGACAGGCUUCGGUGGCACGAUAGCGCCAACGUCCUCAACCUCCAAUGCAUCCCACCACAUGAUGAUGCCUGAAGAGCCUUGGUUUUGUG [G48A G63A U133G] , readout=polymerase ribozyme fitness (log ratio)) returns -1.13

get_value(item= GACCAAUCUGCCCUCAGAGCUCGAGAACAUCUUCGUAUGCAGAGGAGGCAGGCUUCGGUGGCGCGAUAGCGCCAACGUCAUCAACCUCCAAUGCAUCCCACCACAUGAUGAUGCCUGAAGAGCCUUGGUUUUUUG [G36U C80A] , readout=polymerase ribozyme fitness (log ratio)) returns -3.93

get_value(item= GACCAAUCUGCCCUCAGAGCUCGAGAACAUCUUCGGAUGCAGAGGCGGCAGGCUUAGGUGGCGCGAUAGCGCCAACGUCCUCAAGCUCCAAUGCAUCCCACCACAUGAUGAUGCCUGAAGAGCCUUGGUUUUUUG [A46C C56A C85G] , readout=polymerase ribozyme fitness (log ratio)) returns -5.4

get_value(item= GACCAAUCUGCCCUCAGAGCUCGAGAACAUCUUCGGAUGCAGAGGAGGCAGGCUUCGGUGGCGCGAUAGUGACAACGUCCUCAAACUCCAAUGCAUCCCACCACAUGAUGAUGCCUGAAGAGCCUUGGUUUUUUG [C70U C72A C85A] , readout=polymerase ribozyme fitness (log ratio)) returns -2.03

get_value(item= GACCAAUCUGCCAUCAGAGCUCGAGAACAUCUUCGGAUGCAGAGGAGGCAGGCUUCGGUGGCGCGAUAGCGCCAACGUCCUCAACCUCCAAUGCAUCCCACCACAUGAUGAGGCCUGAAGGGCCUUGGUUUUUUG [C13A U112G A121G] , readout=polymerase ribozyme fitness (log ratio)) returns -1.42

get_value(item= GACCAAUCUGCCCUCAGAGCUCGAGAACAUCUUCGGAUGCAGAGGAGGCAGGCUUCGGUGGCGCGAUAGCGCCUACGUCCUCAACCUCCAAUGCAUCCCACUACAUGAUGAUGCCUGAAGAGCCUUGGUUUUUUG [A74U C102U] , readout=polymerase ribozyme fitness (log ratio)) returns -2.82

get_value(item= GACCAAUCUGCCCUCAGAGCUCGAGAACAUCUUCGGAUGCAGAGGAGGCAGGCUUCGGUGGCACGAUAGCGCCAACGUCCUCAACCUCCAAUGCAUCCCACCACAAGAUGAUGCCUGAAGAGCCUUGGUUUUUUG [G63A U106A] , readout=polymerase ribozyme fitness (log ratio)) returns -1.29

get_value(item= GACCAAUCUGCCCUCAGAGCUCGAGAACAUCUUCGGAUGCAGAGGAGGUAGGCUUCGGUGGCGCGAUAGCGCCAACGUGCUCAACCUCCAAUGCAUCCCACCAAAUGAUGAUGCCUGAAGAGCCUUGGUUUUUUG [C49U C79G C104A] , readout=polymerase ribozyme fitness (log ratio)) returns -5.16

get_value(item= GACCAAUCUGCCCUCAGAGCUCGAGAACAUCUUCGGAUGCAGAGGAGGAAGGCUUCGGUGGCGCGAUAGCGCCAACGUCCUUAACCUCCAAUCCAUCCUACCACAUGAUGAUGCCUGAAGAUCCUUGGUUUUUUG [C49A C82U G93C C99U G122U] , readout=polymerase ribozyme fitness (log ratio)) returns -3.82

get_value(item= GACCAAUCUGCCCUCAGAGCUCGAGAACAUCUUCGGAUGCAGAGGAGGCAGGCUUCGGUGGCGCGAUAGCGCCAACGUCCUCAACCUUCAAUGCAUCCCACCACAUGAUGAUGCCUGAAUAGCCUUGGUUUUUUG [C88U G120U] , readout=polymerase ribozyme fitness (log ratio)) returns 0.291

get_value(item= GACCAAUCUGCCCUCAGAGCUCGAGAACAUCUUCGGAUGCAGAGGAGGCAGGAUUCGGUGGCGCGAUAGCACCAACGUCCUCAACCUCCAAUGCAUCCCACCACAUGAUGAUGCCUGAAGAGCAUUGGUUUUUUG [C53A G71A C124A] , readout=polymerase ribozyme fitness (log ratio)) returns 0.149

get_value(item= GACCAAUCUGCUCUCAGAGCUCGAGAACAUCUUCGGAUGCAGAGGAGGCAGGCUUCGGUGGCGCGAUAGCGCCAACGUCCUCAACCUCCAAUGCAUCCCACCACAUGAAGAUGCCUGAAGAGCCUUGGUUUUUUG [C12U U109A] , readout=polymerase ribozyme fitness (log ratio)) returns -3.34

get_value(item= GACCAAUCUGCCCUCAGAGCUCGAGAACAUCUUCGGAUGCAGUGGAGGCAGGCUUCGGUGGCGCGAUAGCGCCAACGUCCUCAACCUCCAAUGCAUCCCACCACAUGAUCAUGCCUGAAGAGCCUUGGUUUUUUG [A43U G110C] , readout=polymerase ribozyme fitness (log ratio)) returns -5.24

get_value(item= GACCAAUCUGCCCUCAGAGCUCGAGAACAUCUUCGGAGGCAGAGGAGGCAGGCUGCGGUGGCGCGAUAGCGCCAACGUCCUCAACCUCCAAUGCAUCCCACCACAUGAUGAUGCCUGAAGCGCCUUGGUUUUUUG [U38G U55G A121C] , readout=polymerase ribozyme fitness (log ratio)) returns 1.28

get_value(item= GACCAAUCUGCCCUCAGAGCUCGAGAACAUCUUCGGAUGCAGAGGAGGCAGGCUUCGGUGGCGCGAUAGCGCCAACGUCCACAACCUCCAAUGCAUCCCACCACAUGAUGAUGCCUGAAGAGCCUUUGUUUUUUG [U81A G127U] , readout=polymerase ribozyme fitness (log ratio)) returns -2.76

get_value(item= GACCAAUCUGCCUUCAGAGCUCGAGAACAUCUUCGGAUGCAGAGGAGGUAGGCUUCAGUGGCGCGAUAGCGCCAACGUCCUGAACCUCCAAUGCAUCCCACCACAAGAUGAUGCCUGAAGAGCCUUGGUUUUUUG [C13U C49U G57A C82G U106A] , readout=polymerase ribozyme fitness (log ratio)) returns -0.895
